# Format: in vivo, Dutch Belted rabbits
# measurementConditions: Dutch Belted, rabbit, RPE-choroid-sclera complex (RCS), sc, 4 mg
measurementKind: Tmax (h)
Quick note: give the figure in h, leave out the unit.

Request: Consider the compound shown here: CNC(=O)c1ccccc1Sc1ccc2c(/C=C/c3ccccn3)n[nH]c2c1 What is its recorded Tmax?
Response: 96

====

# Format: in vivo, Dutch Belted rabbits
# measurementConditions: Dutch Belted, rabbit, vitreous humor, sc, 0.03 mg
measurementKind: Cmax (ng/mL)
Give the value in ng/mL but do not write ng/mL after it.

Request: Reported Cmax for CNC(=O)c1ccccc1Sc1ccc2c(/C=C/c3ccccn3)n[nH]c2c1 [Axitinib] : what is it?
Response: 4.01
